Source listed as ChEMBL document CHEMBL5442219.

Target: Mu-type opioid receptor (Homo sapiens)
Conditions: Compound concentration 10 µM
Description: PDSP Primary Binding target: OPRM1 - Compounds are tested at 10 uM concentration, plate are incubated at room temperature in the dark for 90 minutes. Reaction are stopped by vacuum filtration onto 0.3% polyethyleneimine soaked filter mats using Filtermate harvester. Scintilation cocktail is then melted onto microwave-dried filters on a hot plate and the radio activity is counted in Microbia counter.
Everything with inhibition lower than 30% is N; everything else, including exactly 30%, is Y.

>  <Molecule>
FC(F)(F)c1c(N2CCC(c3ccccc3)CC2)ccn2c(CC3CC3)nnc12

>  <Class>
N

$$$$
>  <Molecule>
CCCSc1nc(N[C@@H]2C[C@H]2c2ccc(F)c(F)c2)c2nnn([C@@H]3C[C@H](OCCO)[C@@H](O)[C@H]3O)c2n1

>  <Class>
N

$$$$
>  <Molecule>
CN1CCC(C(=O)c2cccc(NC(=O)c3c(F)cc(F)cc3F)n2)CC1

>  <Class>
N

$$$$
>  <Molecule>
CCC(=O)NCC[C@@H]1CCc2ccc3c(c21)CCO3

>  <Class>
N

$$$$
>  <Molecule>
CC(C)(C)NC[C@H](O)COc1nsnc1N1CCOCC1

>  <Class>
N

$$$$
>  <Molecule>
CCC[C@H](Oc1cc(C)c(-n2cc(C(F)(F)F)cn2)c(C)c1)c1ccc(C(=O)NCCC(=O)O)cc1

>  <Class>
N

$$$$
>  <Molecule>
COC(=O)[C@H]1[C@H]2C[C@H]3c4[nH]c5ccccc5c4CCN3C[C@H]2CC[C@@H]1O

>  <Class>
N

$$$$
>  <Molecule>
Cc1cc(C)c(N)c(C#Cc2cccc(F)c2)n1

>  <Class>
N

$$$$

[in] Textbook exercise: given the entry O=c1ccn([C@@H]2O[C@H](COP(=O)(O)OP(=O)(O)OP(=O)(O)O)[C@@H](O)[C@H]2O)c(=O)[nH]1 , state whether its inhibition is greater than or equal to 30%.
[out] N

[in] Textbook exercise: given the entry O=C(O)C1CN(Cc2ccc(OCc3ccc(Cl)c(Cl)c3)cc2)C1 , state whether its inhibition is greater than or equal to 30%.
[out] N

[in] Textbook exercise: given the entry O=S1(=O)c2cccc3cccc(c23)N1CCCN1CCN(c2ccc(F)cc2)CC1 , state whether its inhibition is greater than or equal to 30%.
[out] Y

[in] Textbook exercise: given the entry O=C(c1cc2c(cc1F)OC(c1ccc(F)cc1)(c1ccc(Cl)cc1Cl)O2)N1CCOCC1 (centres undefined) , state whether its inhibition is greater than or equal to 30%.
[out] Y

[in] Textbook exercise: given the entry Cc1nc(-c2ccc(-c3ccc(C(=O)N4CCc5cc6c(cc54)C4(CCN(C)CC4)CO6)cc3)c(C)c2)no1 , state whether its inhibition is greater than or equal to 30%.
[out] N

[in] Textbook exercise: given the entry O=C(O)CC1CCC2(CC1)CCN(c1cc(OC(F)(F)F)ccc1Cl)CC2 , state whether its inhibition is greater than or equal to 30%.
[out] Y

[in] Textbook exercise: given the entry O=C(O)COc1cccc(CN(Cc2ccc(-n3cccn3)cc2)S(=O)(=O)c2cccnc2)c1 , state whether its inhibition is greater than or equal to 30%.
[out] N

[in] Textbook exercise: given the entry S=C(NCCCc1c[nH]cn1)NCCCN(Cc1ccc(Cl)c(Cl)c1)c1ccc(Br)cn1 , state whether its inhibition is greater than or equal to 30%.
[out] N

[in] Textbook exercise: given the entry O=C(Cc1ccccc1)Nc1nc2ccc(Cl)cc2c2nc(-c3ccco3)nn12 , state whether its inhibition is greater than or equal to 30%.
[out] N

[in] Textbook exercise: given the entry C[C@H](NC[C@H](O)CP(=O)(O)CC1CCCCC1)c1ccc(Cl)c(Cl)c1 , state whether its inhibition is greater than or equal to 30%.
[out] Y

[in] Textbook exercise: given the entry Cc1cccc(NC(=O)N[C@@H]2N=C(c3ccccc3)c3ccccc3N(C)C2=O)c1 , state whether its inhibition is greater than or equal to 30%.
[out] N

====

Target: D(2) dopamine receptor (Homo sapiens)
Details: Compound concentration 10 µM; call rule not given here
The reply should be one of these categories: active, inactive

[in] Recorded test outcome, item CN(C(=O)Cc1ccc(Cl)c(Cl)c1)C(CN1CCCC1)c1cccc(OCC(=O)O)c1 (stereo not given)
[out] inactive

[in] Recorded test outcome, item CNC[C@H](O)c1ccc(O)c(O)c1
[out] inactive

====

Target: 5-hydroxytryptamine receptor 1E (Homo sapiens)
Details: Compound concentration 10 µM
Description: PDSP Primary Binding target: HTR1E - Compounds are tested at 10 uM concentration, plate are incubated at room temperature in the dark for 90 minutes. Reaction are stopped by vacuum filtration onto 0.3% polyethyleneimine soaked filter mats using Filtermate harvester. Scintilation cocktail is then melted onto microwave-dried filters on a hot plate and the radio activity is counted in Microbia counter.
Reported Property: inhibition (%)
Numeric answer only, unit % assumed.

[in] Fetch value of inhibition on 5-hydroxytryptamine receptor 1E (Homo sapiens) for COc1ccc(/C=C/CCCCOc2ccc(C(=O)c3cccc(C(=O)O)c3)cc2CCC(=O)O)cc1 .
[out] 8.42

[in] Fetch value of inhibition on 5-hydroxytryptamine receptor 1E (Homo sapiens) for N#Cc1ccc2[nH]cc(CCCCN3CCN(c4ccc5oc(C(N)=O)cc5c4)CC3)c2c1 .
[out] 21.2

[in] Fetch value of inhibition on 5-hydroxytryptamine receptor 1E (Homo sapiens) for Cc1ccccc1C(=O)Nc1ccc(C(=O)N2CCCC(O)c3cc(Cl)ccc32)c(C)c1 (stereo not drawn) .
[out] 0.51

====

Target: UniProt:P11229
Sequence (P11229 whole entry): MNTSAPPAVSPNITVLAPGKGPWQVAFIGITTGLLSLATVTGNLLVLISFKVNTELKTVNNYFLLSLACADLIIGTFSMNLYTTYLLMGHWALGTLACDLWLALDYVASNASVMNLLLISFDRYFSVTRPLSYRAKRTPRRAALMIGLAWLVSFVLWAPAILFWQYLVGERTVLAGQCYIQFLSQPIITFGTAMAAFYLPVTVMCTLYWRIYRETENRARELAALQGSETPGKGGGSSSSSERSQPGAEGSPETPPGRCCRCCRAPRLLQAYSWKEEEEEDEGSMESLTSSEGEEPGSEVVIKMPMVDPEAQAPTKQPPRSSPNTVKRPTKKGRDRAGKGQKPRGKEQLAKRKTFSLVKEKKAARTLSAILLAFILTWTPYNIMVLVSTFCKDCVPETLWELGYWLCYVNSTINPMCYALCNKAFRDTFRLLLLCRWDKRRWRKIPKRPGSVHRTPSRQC
Conditions: Compound concentration 10 µM
Description: PDSP Primary Binding target: CHRM1 - Compounds are tested at 10 uM concentration, plate are incubated at room temperature in the dark for 90 minutes. Reaction are stopped by vacuum filtration onto 0.3% polyethyleneimine soaked filter mats using Filtermate harvester. Scintilation cocktail is then melted onto microwave-dried filters on a hot plate and the radio activity is counted in Microbia counter.
Quick reference for inhibition among some molecules
Numeric answer only, unit % assumed.

Sample answers from the record:
>  <Structure As Smiles>
Cc1cc(C)cc(-c2cnc3cc(Cl)c(-c4cccc(O)c4)cc3c2OCCCN)c1

>  <Test Result>
24.3

$$$$
>  <Structure As Smiles>
c1ccc(N2CCN(Cc3nc4ccccc4[nH]3)CC2)nc1

>  <Test Result>
22.3

$$$$
>  <Structure As Smiles>
Cc1cc([C@@H](C)Nc2cccc(-c3cc(C)c(C(=O)N[C@@H](C)C(=O)O)c(C)c3)c2)ccc1Cl

>  <Test Result>
21.2

$$$$
>  <Structure As Smiles>
COC(=O)C1=C(C)NC(C)=C(C(=O)OCCCN2CCC(c3ccccc3)(c3ccccc3)CC2)[C@H]1c1cccc([N+](=O)[O-])c1

>  <Test Result>
30.9

$$$$
>  <Structure As Smiles>
COc1cccc(-c2c(C)n(Cc3c(F)cccc3C(F)(F)F)c(=O)n(C[C@H](NCCCC(=O)O)c3ccccc3)c2=O)c1F

>  <Test Result>
26.2

$$$$
>  <Structure As Smiles>
Cc1cc(C)cc(C(=O)N(C)[C@H](Cc2ccc(-c3ccccc3)cc2)C(=O)N[C@@H](Cc2c[nH]c3ccccc23)C(=O)O)c1

>  <Test Result>
12.5

$$$$

[in] Fetch value of inhibition on UniProt:P11229 for Nc1nc2c(c(N3CCNCC3)n1)CCC1=C2[C@@H]2CCCC[C@@H]2O1 .
[out] 8.9

[in] Fetch value of inhibition on UniProt:P11229 for CCC(=O)NCC[C@@H]1CCc2ccc3c(c21)CCO3 .
[out] -3.08

[in] Fetch value of inhibition on UniProt:P11229 for O=C(O)c1n[nH]c2c1C[C@H]1C[C@@H]21 .
[out] -7.24

====

Quick reference for inhibition among some compounds
Target: Alpha-2B adrenergic receptor (Homo sapiens) (UniProt P18089)
Sequence (P18089 whole entry): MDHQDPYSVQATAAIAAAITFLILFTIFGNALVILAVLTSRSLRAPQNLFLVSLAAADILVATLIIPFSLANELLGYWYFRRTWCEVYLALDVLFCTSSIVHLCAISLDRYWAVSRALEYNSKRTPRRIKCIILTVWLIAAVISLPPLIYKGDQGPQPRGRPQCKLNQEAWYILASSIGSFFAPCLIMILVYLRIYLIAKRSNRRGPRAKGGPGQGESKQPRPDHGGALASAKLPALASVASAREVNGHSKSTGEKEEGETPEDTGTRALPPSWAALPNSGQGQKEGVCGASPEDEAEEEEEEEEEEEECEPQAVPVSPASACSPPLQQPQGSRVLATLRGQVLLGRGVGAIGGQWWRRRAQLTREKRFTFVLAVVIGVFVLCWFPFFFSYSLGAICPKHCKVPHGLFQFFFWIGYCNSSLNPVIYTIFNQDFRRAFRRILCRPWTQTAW
Details: Compound concentration 10 µM
Description: PDSP Primary Binding target: ADRA2B - Compounds are tested at 10 uM concentration, plate are incubated at room temperature in the dark for 90 minutes. Reaction are stopped by vacuum filtration onto 0.3% polyethyleneimine soaked filter mats using Filtermate harvester. Scintilation cocktail is then melted onto microwave-dried filters on a hot plate and the radio activity is counted in Microbia counter.
Numeric answer only, unit % assumed.

>  <Compound>
CCCCCCCCCCCCCCCCOC[C@H](COP(=O)([O-])OCC[N+](C)(C)C)OC(C)=O

>  <inhibition / %>
68.8

$$$$
>  <Compound>
CSc1ccc(C(=O)N[C@@H]2CCCC[C@@H]2NC(=O)CNC(=O)c2cc(C(F)(F)F)ccc2NC(=O)NC(C)C)cc1

>  <inhibition / %>
10.8

$$$$
>  <Compound>
CCc1cc2c(cc1CC)CC(NC[C@H](O)c1ccc(O)c3[nH]c(=O)ccc13)C2

>  <inhibition / %>
38.5

$$$$
>  <Compound>
N#Cc1ccc2[nH]cc(CCCCN3CCN(c4ccc5oc(C(N)=O)cc5c4)CC3)c2c1

>  <inhibition / %>
47.1

$$$$
>  <Compound>
CCN(CC)CCCCC1CCN(CC(=O)N2c3ccccc3C(=O)Nc3cccnc32)CC1

>  <inhibition / %>
-3.71

$$$$
>  <Compound>
Cc1nc2sccn2c(=O)c1CCN1CCC(=C(c2ccc(F)cc2)c2ccc(F)cc2)CC1

>  <inhibition / %>
84

$$$$
>  <Compound>
CC1CCN(CC[C@H]2CCCN2S(=O)(=O)c2cccc(O)c2)CC1

>  <inhibition / %>
51

$$$$
>  <Compound>
NCCc1c[nH]c2ccc(C(N)=O)cc12

>  <inhibition / %>
24.8

$$$$
>  <Compound>
Cc1ccccc1N1CCN(S(=O)(=O)C[C@]23CC[C@H](C[C@@H]2NC(=O)[C@@H](N)CCS(C)(=O)=O)C3(C)C)CC1

>  <inhibition / %>
11.2

$$$$
>  <Compound>
C[C@@H](NCCCc1cccc(C(F)(F)F)c1)c1cccc2ccccc12

>  <inhibition / %>
39.4

$$$$

[in] Hello, please tell me recorded inhibition for this one: OCc1cc(C(O)CNCCCCCCOCCCCc2ccccc2)ccc1O (centres undefined)
[out] 74.1

[in] Hello, please tell me recorded inhibition for this one: Cc1c(P(=S)(c2ccccc2)c2ccccc2)n2ccccc2[n+]1C/C=C/c1ccccc1
[out] 45.7

[in] Hello, please tell me recorded inhibition for this one: OC[C@H]1O[C@@H](n2cnc3c(NC4CCCC4)ncnc32)[C@H](O)[C@@H]1O
[out] 11
